- Organism: Homo sapiens
- TEST_PROTOCOL: Inhibition of actin polymerization in fMLP-stimulated human neutrophils assessed as positive fluorescence signal at 3.3 uM
Decision: inhibition >= 20% yields rule met, all other cases yield rule not met.

Past entries and their recorded results:
CC(C)(O)/C=C/C(=O)[C@](C)(O)[C@H]1[C@H](O)C[C@@]2(C)[C@@H]3CC=C4[C@@H](C[C@H](O)C(=O)C4(C)C)[C@]3(C)C(=O)C[C@]12C [CUCURBITACIN D]: rule met
CC(C)(O)CCC(=O)[C@@](C)(O)C1[C@H](O)C[C@@]2(C)[C@@H]3CC=C4C(C=C(O)C(=O)C4(C)C)[C@]3(C)C(=O)C[C@]12C (stereo partly specified) [CUCURBITACIN L]: rule met
CC(=O)OC(C)(C)/C=C/C(=O)[C@](C)(O)[C@H]1[C@H](O)C[C@@]2(C)[C@@H]3CC=C4[C@@H](C=C(O)C(=O)C4(C)C)[C@]3(C)C(=O)C[C@]12C [CUCURBITACIN E]: rule not met
CC(C)(O)CCC(=O)[C@](C)(O)[C@H]1[C@H](O)C[C@@]2(C)[C@@H]3CC=C4[C@@H](C[C@H](O)C(=O)C4(C)C)[C@]3(C)C(=O)C[C@]12C [CUCURBITACIN R]: rule met

Now for a further compound.
Inquiry: Could you please find out whether CC(=O)OC(C)(C)/C=C/C(=O)[C@](C)(O)[C@H]1[C@H](O)C[C@@]2(C)[C@@H]3CC=C4[C@H](C[C@H](O)C(=O)C4(C)C)[C@]3(C)C(=O)C[C@]12C [CUCURBITACIN B] has inhibition that meets 20% or exceeds it?
Reply text: rule not met
